TGT: T1, human CD112R on Jurkat CD112R effector cells (human, UniProt Q6DKI7 1-326)
T1 sequence (looked up): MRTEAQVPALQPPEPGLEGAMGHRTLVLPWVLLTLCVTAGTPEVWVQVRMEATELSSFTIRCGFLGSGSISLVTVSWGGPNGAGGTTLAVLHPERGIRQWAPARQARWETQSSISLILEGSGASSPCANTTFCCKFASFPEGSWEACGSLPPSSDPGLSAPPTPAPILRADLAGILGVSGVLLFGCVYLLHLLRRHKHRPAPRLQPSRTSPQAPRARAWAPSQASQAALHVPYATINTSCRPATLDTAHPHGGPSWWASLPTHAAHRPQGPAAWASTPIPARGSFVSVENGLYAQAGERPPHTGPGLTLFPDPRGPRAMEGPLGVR
ASSAY EXPLANATION: cell-based or functional assay
MEASUREMENT KIND: Relative activity (%), EC50 COM701/EC50 antibody
Use % as the unit, but write only the number.

Entry under test: Hu51 (antibody, IgG4, V domains shown, humanized IgG4) VH: EVQLVESGGGLVKPGGSLRLSCAASGFTFSSYHMSWVRQAPGKGLELVSAINSNGINTYYLDTVKGRFTISRDNAKNSLYLQMNSLRAEDTAVYYCARHEDYYGFAMDYWGQGTLVTVSS VL: EIVMTQSPPTLSLSPGERVTLSCKASQSVSNDVAWYQEKPGQAPRLLIYYVSHRFTGIPARFSGSGSGTDFTLTISSLQPEDFAVYYCHQAYRSPWTFGQGTKLEIK . Its Relative activity (%), EC50 COM701/EC50 antibody was 332

Values were extracted from patent US20240309087A1.
